Reported absorbance at 450 nm is given for each of the following binders.
molecular target: tetanus neurotoxin (TeNT), authentic tetanus holotoxin (Clostridium tetani, UniProt P04958 2-1315); assay: ELISA, directly coated TeNT; also: test concentration or dose not given here
Sequence (P04958 2-457 limits assumed, chain 1 of 2): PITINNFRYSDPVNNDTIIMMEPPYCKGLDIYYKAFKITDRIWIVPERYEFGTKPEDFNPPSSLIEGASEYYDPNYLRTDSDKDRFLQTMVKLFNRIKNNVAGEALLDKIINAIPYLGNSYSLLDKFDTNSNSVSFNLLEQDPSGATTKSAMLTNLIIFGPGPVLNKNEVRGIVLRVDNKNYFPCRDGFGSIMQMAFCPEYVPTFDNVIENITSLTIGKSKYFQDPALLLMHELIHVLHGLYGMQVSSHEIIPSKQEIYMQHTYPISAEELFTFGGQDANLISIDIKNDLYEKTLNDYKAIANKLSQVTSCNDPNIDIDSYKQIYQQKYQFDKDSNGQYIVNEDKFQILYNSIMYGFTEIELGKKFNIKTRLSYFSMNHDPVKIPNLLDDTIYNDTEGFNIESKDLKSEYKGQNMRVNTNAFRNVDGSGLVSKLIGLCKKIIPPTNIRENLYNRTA
Sequence (P04958 458-1315 limits assumed, chain 2 of 2): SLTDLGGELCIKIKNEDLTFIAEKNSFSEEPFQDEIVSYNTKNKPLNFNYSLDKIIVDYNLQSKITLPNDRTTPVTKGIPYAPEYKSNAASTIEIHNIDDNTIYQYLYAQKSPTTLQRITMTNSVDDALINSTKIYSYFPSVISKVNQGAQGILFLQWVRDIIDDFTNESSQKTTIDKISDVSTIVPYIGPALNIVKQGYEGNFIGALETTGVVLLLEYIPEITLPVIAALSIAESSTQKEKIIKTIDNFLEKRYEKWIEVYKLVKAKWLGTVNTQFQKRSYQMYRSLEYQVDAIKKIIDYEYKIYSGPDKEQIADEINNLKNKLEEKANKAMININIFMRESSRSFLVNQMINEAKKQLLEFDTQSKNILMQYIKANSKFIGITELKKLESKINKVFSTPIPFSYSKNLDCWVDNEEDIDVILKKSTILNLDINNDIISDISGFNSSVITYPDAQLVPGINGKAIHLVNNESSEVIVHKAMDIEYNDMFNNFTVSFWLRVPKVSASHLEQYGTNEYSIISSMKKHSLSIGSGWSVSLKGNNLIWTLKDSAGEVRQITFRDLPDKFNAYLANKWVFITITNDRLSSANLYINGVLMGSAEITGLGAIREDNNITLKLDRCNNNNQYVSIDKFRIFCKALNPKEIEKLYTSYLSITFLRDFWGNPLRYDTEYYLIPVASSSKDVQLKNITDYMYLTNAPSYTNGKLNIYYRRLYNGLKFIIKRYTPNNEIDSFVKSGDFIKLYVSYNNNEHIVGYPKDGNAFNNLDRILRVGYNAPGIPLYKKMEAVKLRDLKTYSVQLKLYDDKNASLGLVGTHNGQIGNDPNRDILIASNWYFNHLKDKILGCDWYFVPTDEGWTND

# example entries with known answers
INSERT INTO measurements (binder, observed) VALUES
  ('SVT03L (VHH) VHH: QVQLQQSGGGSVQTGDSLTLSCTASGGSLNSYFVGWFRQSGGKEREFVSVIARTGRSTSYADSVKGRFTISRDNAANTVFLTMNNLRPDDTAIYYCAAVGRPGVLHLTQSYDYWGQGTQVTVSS', 0.331),
  ('SVT02L (VHH) VHH: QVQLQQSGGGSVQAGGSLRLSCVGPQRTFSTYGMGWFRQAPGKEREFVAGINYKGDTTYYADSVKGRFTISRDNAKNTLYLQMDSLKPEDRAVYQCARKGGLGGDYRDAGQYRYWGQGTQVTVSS', 0.062),
  ('SVT15L-3FW4M (VHH) VHH: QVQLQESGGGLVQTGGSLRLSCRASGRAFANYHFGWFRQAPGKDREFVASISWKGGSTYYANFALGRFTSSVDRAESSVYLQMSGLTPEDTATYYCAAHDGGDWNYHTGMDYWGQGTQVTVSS', 0.477);

Lookup: Report absorbance at 450 nm, nothing else, for this binder: SVT16L (VHH) VHH: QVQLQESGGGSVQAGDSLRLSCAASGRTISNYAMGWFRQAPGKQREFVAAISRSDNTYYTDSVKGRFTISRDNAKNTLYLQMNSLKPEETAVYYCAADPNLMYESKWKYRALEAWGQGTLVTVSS
Found: 1.27

Just for reference, patent US20240376185A1 is where these values come from.
